Test System: angiotensin AT4 receptor of Macaca fascicularis brain (Macaca fascicularis)
Experimental Details: competition for [125I]Ang IV binding, monkey prefrontal cortical sections
Where no end group is shown, it is not given here.
Quantity: pIC50
Worth noting: pIC50 values are minus log10 of concentrations stated in mol/L.

Sure, the documented pIC50 for VYIHPF (also: same id also used for [125I]Ang IV tracer, radioiodinated with chloramine T) [angiotensin IV] is 8.30
